Where do these numbers come from? They come from ChEMBL document CHEMBL5346877.

# measured_target: Androgen receptor (Homo sapiens, UniProt P10275)
# Sequence (P10275 whole entry): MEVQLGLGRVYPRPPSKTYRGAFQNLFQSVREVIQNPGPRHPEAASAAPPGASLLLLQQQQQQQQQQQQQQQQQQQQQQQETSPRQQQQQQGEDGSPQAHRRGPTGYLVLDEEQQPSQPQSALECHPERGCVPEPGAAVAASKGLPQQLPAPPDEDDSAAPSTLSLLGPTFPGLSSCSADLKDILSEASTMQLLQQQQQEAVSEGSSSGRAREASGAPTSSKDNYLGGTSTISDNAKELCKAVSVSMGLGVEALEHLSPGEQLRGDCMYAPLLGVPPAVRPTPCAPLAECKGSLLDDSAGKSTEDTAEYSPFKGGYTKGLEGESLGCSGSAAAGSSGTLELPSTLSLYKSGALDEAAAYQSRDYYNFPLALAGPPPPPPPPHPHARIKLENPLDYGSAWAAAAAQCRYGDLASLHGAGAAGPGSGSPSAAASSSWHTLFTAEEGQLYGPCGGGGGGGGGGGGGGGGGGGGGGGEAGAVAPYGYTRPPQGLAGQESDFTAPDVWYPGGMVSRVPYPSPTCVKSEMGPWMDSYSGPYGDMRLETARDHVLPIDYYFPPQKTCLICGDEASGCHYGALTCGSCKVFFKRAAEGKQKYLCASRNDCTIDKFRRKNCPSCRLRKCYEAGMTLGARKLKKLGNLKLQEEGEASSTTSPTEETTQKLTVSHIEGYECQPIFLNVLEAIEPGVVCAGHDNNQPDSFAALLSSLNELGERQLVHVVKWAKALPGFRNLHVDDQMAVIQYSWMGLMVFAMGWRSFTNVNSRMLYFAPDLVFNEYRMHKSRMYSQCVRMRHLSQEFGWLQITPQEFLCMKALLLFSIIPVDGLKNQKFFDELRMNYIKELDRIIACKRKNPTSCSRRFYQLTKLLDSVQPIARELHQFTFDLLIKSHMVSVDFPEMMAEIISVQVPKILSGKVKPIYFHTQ
# assay_explanation: Antagonist activity at AR transcription in human 22Rv1 cells incubated for 24 hrs in presence of R1881
assay_metric: pIC50
Schema: pIC50 number; meaning minus log10 of the concentration expressed in molar units.

## Input What value of pIC50 has been reported for the following molecule? `Cc1c2c(nn1-c1ccc(F)cc1)C[C@@H]1CC[C@@H]3[C@H](CC[C@]4(C)[C@@H](O)CC[C@@H]34)[C@@]1(C)C2`
## Output 5.93

* * *

# Tested on: CWR22R
# assay_explanation: Cytotoxicity against human 22Rv1 cells assessed as cell viability at 20 uM incubated for 72 hrs by resazurin dye based microplate reader assay
# Format: functional
# settings: read-out: Activity
assay_metric: viability at 20 µM (%)
Provide the reading as a plain figure in %.

Use these answered entries as a reference point.
## Input Quick check: viability at 20 µM of `Cc1c2c(nn1-c1ccccc1)C[C@@H]1CC[C@@H]3[C@H](CC[C@]4(C)C(=O)CC[C@@H]34)[C@@]1(C)C2` ?
## Output 90

## Input viability at 20 µM lookup needed for `Cc1c2c(nn1-c1ccc(F)cc1)C[C@@H]1CC[C@@H]3[C@H](CC[C@]4(C)[C@@H](O)CC[C@@H]34)[C@@]1(C)C2` , thanks.
## Output 26

# context switch: different molecule, same viability at 20 µM
## Input Reported viability at 20 µM, molecule `Cc1ccc(-n2ncc3c2C[C@@H]2CC[C@@H]4[C@H](CC[C@]5(C)[C@@H](O)CC[C@@H]45)[C@@]2(C)C3)cc1` : ____
## Output 97

* * *

# assay_explanation: Downregulation of AR protein expression in human LAPC4 cells assessed as AR levels at 10 uM incubated for 24 hrs by immunoblotting analysis
# Type: functional
Activity: recorded values
The response must be a number in % with no trailing unit.

## Input Please look up its Activity: `Cn1nc2c(c1-c1ccc(Cl)cc1)C[C@@]1(C)[C@@H](CC[C@@H]3[C@@H]1CC[C@]1(C)[C@@H](O)CC[C@@H]31)C2`
## Output 91

## Input Which Activity is listed for N#Cc1ccc(O[C@H]2CC[C@H](NC(=O)c3ccc(N4CCC(CN5CCN(c6cc7c(cc6F)C(=O)N(C6CCC(=O)NC6=O)C7=O)CC5)CC4)nn3)CC2)cc1Cl (stereo partly specified) [BAVDEGALUTAMIDE] ?
## Output 14

## Input Which Activity reading was recorded for the molecule `Cn1nc2c(c1-c1ccco1)C[C@@]1(C)[C@@H](CC[C@@H]3[C@@H]1CC[C@]1(C)[C@@H](O)CC[C@@H]31)C2` ?
## Output 78

## Input I am curious: what Activity value has been reported for `Cn1nc2c(c1-c1cccs1)C[C@@]1(C)[C@@H](CC[C@@H]3[C@@H]1CC[C@]1(C)C(=O)CC[C@@H]31)C2` ?
## Output 92

## Input Name the recorded Activity for `Cn1nc2c(c1-c1ccccc1)C[C@@]1(C)[C@@H](CC[C@@H]3[C@@H]1CC[C@]1(C)[C@@H](O)CC[C@@H]31)C2` .
## Output 93

## Input # Activity lookup, item `Cn1nc2c(c1-c1ccc(F)cc1)C[C@@]1(C)[C@@H](CC[C@@H]3[C@@H]1CC[C@]1(C)C(=O)CC[C@@H]31)C2`
## Output 100

## Input Record request: Activity value, item `Cn1nc2c(c1-c1ccc(Br)cc1)C[C@@]1(C)[C@@H](CC[C@@H]3[C@@H]1CC[C@]1(C)C(=O)CC[C@@H]31)C2`
## Output 49

## Input Value lookup for Activity; key = `C[C@]12CC[C@H](O)CC1=CC[C@@H]1[C@@H]2CC[C@]2(C)C(n3cnc4ccccc43)=CC[C@@H]12`
## Output 81

## Input Request the reported Activity associated with `Cc1ccc(-c2c3c(nn2C)C[C@@H]2CC[C@@H]4[C@H](CC[C@]5(C)C(=O)CC[C@@H]45)[C@@]2(C)C3)cc1`
## Output 92

## Input Item `Cc1c2c(nn1C)C[C@@H]1CC[C@@H]3[C@H](CC[C@]4(C)C(=O)CC[C@@H]34)[C@@]1(C)C2` has what recorded Activity?
## Output 86

## Input Suppose we examine the molecule CNC(=O)c1ccc(N2C(=S)N(c3ccc(C#N)c(C(F)(F)F)c3)C(=O)C2(C)C)cc1F [ENZALUTAMIDE] ; what Activity value has been reported?
## Output 85

## Input Fill in: Activity of `Cc1ccc(-c2c3c(nn2C)C[C@@H]2CC[C@@H]4[C@H](CC[C@]5(C)[C@@H](O)CC[C@@H]45)[C@@]2(C)C3)cc1` is ___
## Output 96
